- TARGET OF ASSAY: full-length human tau (T40) / 12 kD PHF-core tau fragment (Homo sapiens, UniProt P10636)
- Sequence (P10636 1-441 isoform P10636-8): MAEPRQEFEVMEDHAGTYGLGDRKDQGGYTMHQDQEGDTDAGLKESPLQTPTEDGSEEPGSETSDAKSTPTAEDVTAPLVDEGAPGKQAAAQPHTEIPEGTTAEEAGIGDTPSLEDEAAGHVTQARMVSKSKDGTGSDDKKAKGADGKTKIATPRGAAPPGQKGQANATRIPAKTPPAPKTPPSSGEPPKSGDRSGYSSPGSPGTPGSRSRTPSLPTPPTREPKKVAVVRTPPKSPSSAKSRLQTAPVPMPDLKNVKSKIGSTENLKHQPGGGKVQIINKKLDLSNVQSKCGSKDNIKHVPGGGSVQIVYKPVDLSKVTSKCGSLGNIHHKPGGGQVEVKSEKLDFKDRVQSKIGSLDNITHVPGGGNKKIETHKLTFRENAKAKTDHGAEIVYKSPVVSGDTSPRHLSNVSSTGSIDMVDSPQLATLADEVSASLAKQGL
- ASSAY TEXT: cell-based
Consider the following compounds; for each one, report its pKi.
Numbers only, as −log10 of the molar value.

[
  {
    "COMPOUND": "CN(C)CCCN1c2ccccc2Sc2ccc(Cl)cc21 [chlorpromazine]",
    "pKi": 5.67
  }
]

# evaluate next
According to the records, this compound Nc1c2c(nc3ccccc13)CCCC2 [tacrine] displays pKi of 6.10

----------
- TARGET OF ASSAY: full-length human tau (T40) / 12 kD PHF-core tau fragment (Homo sapiens)
- EXPERIMENTAL CONTEXT: read-out: cellular B50 value; base-line expression of the 12/14 kD species; concentration reducing 12 kD production to 50%
pIC50: −log10 of the molar value.
MEASUREMENT NAME: pIC50

According to the records, this compound Cc1cc(N(C)C)cc2[s+]c3cc(N(C)C)cc(C)c3nc12 displays pIC50 of ~7.00
